Assay: NCI Yeast Anticancer Drug Screen. Data for the mec2-1 strain (AID 157)
Conditions: S. cerevisiae mec2-1 strain, at 50.0 µM
Description: Growth inhibition of yeast strains with defined genetic alterations is measured as a screen for potential anti-cancer activity. Selected strains with alterations in DNA damage repair or cell cycle control were exposed to compounds and growth inhibition was measured relative to vehicle treated controls. The strain used in this assay is mec2-1
The panel holds about 79,000 compounds, 15% with a hit somewhere; the sample as a whole holds those more often. The source made the active and inactive calls. No stated cut-off is given here; in the data, active means growth inhibition above about 70%; inactive means the rest.
Labels: t for active, f for inactive

>  <molecule>
O=P(O)(O)c1ccccc1.[Zn+2]

>  <qualitative label>
f

$$$$
>  <molecule>
C1CC[N-]CC1.CC(=N\O)/C(C)=N/O.CC(=N\O)/C(C)=N/O.[CH2-]c1ccccc1.[Co+2]

>  <qualitative label>
f

$$$$
>  <molecule>
CC(C)CCC[C@@H](C)[C@H]1CC[C@H]2[C@@H]3CC[C@H]4C[C@H]5N[C@H]5C[C@]4(C)[C@H]3CC[C@]12C

>  <qualitative label>
f

$$$$
>  <molecule>
COP(=O)(OC)N1CCCCC1

>  <qualitative label>
f

$$$$
>  <molecule>
CN(C)c1ccc2c(c1)Cc1ccccc1-2

>  <qualitative label>
f

$$$$
>  <molecule>
OC[CH2][Hg][I]

>  <qualitative label>
t

$$$$
>  <molecule>
c1ccc(N=c2snc(-c3ccccc3)s2)cc1

>  <qualitative label>
f

$$$$

The origin of these recorded values is PubChem BioAssay (NCI).
